study_system: HIV Env of isolate CAP210.2.00.E8 (clade C) (HIV)
assay_procedure: cell-based or functional assay
# Lookup of reported IC50 (µg/ml) with constrains keyed by entry
Value expressed in µg/mL; do not type the unit.

Input ePGDM5 (antibody, V domains shown) VH: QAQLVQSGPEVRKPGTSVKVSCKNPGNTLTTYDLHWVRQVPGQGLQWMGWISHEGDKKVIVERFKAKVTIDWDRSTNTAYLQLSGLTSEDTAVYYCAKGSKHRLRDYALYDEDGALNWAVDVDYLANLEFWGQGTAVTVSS VL: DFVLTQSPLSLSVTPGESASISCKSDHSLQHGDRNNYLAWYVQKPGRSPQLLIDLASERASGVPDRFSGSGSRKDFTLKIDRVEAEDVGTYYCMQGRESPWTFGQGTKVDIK . Output IC50 (µg/ml) with constrains: 0.057

Input PGDM1400 (antibody, V domains shown) VH: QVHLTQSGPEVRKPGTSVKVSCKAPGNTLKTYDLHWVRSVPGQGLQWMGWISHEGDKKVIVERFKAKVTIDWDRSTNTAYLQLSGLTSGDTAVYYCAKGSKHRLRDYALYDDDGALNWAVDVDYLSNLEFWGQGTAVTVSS VL: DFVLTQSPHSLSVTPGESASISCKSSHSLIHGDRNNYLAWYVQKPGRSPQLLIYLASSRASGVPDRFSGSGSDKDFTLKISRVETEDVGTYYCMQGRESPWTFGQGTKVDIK . Output IC50 (µg/ml) with constrains: 0.33

Input ePGDM13 (antibody, V domains shown) VH: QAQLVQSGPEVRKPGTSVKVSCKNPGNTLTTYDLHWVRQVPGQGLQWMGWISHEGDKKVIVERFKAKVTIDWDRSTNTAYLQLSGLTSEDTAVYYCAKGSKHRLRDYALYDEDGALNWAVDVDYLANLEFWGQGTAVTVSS VL: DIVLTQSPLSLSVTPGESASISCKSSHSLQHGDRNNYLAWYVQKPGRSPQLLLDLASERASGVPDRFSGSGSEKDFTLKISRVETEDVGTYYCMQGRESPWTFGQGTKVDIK . Output IC50 (µg/ml) with constrains: 0.135

Pending binder:
Input ePGDM9 (antibody, V domains shown) VH: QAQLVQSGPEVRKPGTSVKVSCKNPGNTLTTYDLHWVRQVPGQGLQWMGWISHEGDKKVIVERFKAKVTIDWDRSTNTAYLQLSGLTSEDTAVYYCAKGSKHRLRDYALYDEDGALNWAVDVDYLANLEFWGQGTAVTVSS VL: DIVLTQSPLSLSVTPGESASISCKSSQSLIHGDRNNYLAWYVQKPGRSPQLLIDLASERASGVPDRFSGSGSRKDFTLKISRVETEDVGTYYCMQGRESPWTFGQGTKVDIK . Output IC50 (µg/ml) with constrains: 0.055

Where do the numbers come from? From patent US20230134571A1.
